tested on: RAW 264.7; test: Anti-inflammation assay: released NO in LPS-stimulated RAW 264.7 (Griess); assay type: cell-based, Murine; conditions: peptide 10 µg/mL 1 h, then 1 µg/mL LPS 24 h; replicate 1
The sequences listed here are annotated with their Released NO.
reported_property: Released NO (µM)

>  <polymer_sequence>
PFTMYFLL [P14, synthesized peptide identified from jellyfish fraction PUR20C]

>  <reported_property>
Released NO

>  <value_units>
µM

>  <reported_value>
32.06

$$$$
>  <polymer_sequence>
RARVVPMY [P6, synthesized peptide identified from jellyfish fraction PUR20C]

>  <reported_property>
Released NO

>  <value_units>
µM

>  <reported_value>
34.82

$$$$
>  <polymer_sequence>
NQKAMQELNE [P1, synthesized peptide identified from jellyfish fraction PUR20C]

>  <reported_property>
Released NO

>  <value_units>
µM

>  <reported_value>
37.58

$$$$
>  <polymer_sequence>
EIILIPMF [P3, synthesized peptide identified from jellyfish fraction PUR20C]

>  <reported_property>
Released NO

>  <value_units>
µM

>  <reported_value>
37.58

$$$$

====

The sequences listed here are annotated with their inhibition.
Tested on: angiotensin I-converting enzyme (ACE)
Assay: ACE inhibitory activity assay (fluorometric ACE activity assay kit)
Format: biochemical
Conditions: peptide sample 1 mg/mL, 37 °C, fluorescence ex 320/em 405 nm; mean ± SD, n = 3; SD
Procedure: The ACE inhibitory activity assay was performed following the method outlined by Batista et al., with slight modifications, using a fluorometric angiotensin I-converting enzyme (ACE) activity assay kit from Sigma-Aldrich (catalog number CS0002), Burlington, Massachusetts, USA. […] A fluorescence multiwell plate reader was used to monitor the changes in fluorescence. The sample’s fluorescence was measured every min for 5 min, with excitation at 320 nm and emission at 405 nm. […]

>  <polymer_sequence>
GKNCGETVWE [P9, synthesized peptide identified from jellyfish fraction PUR20C]

>  <study_target>
angiotensin I-converting enzyme (ACE)

>  <inhibition, %>
7.53

$$$$
>  <polymer_sequence>
NFTVLCDSLE [P10, synthesized peptide identified from jellyfish fraction PUR20C]

>  <study_target>
angiotensin I-converting enzyme (ACE)

>  <inhibition, %>
9.82

$$$$
>  <polymer_sequence>
NQKAMQELNE [P1, synthesized peptide identified from jellyfish fraction PUR20C]

>  <study_target>
angiotensin I-converting enzyme (ACE)

>  <inhibition, %>
6.48

$$$$
>  <polymer_sequence>
EIDKLPPESRP [P7, synthesized peptide identified from jellyfish fraction PUR20C]

>  <study_target>
angiotensin I-converting enzyme (ACE)

>  <inhibition, %>
8.68

$$$$

====

Tested on: RAW 264.7
Experiment: Cytotoxicity assessment (MTT)
Assay type: cell-based, Murine
Details: peptide 10 µg/mL, 72 h, replicate 2
Procedure: Murine macrophage cells (RAW 264.7; ATCC TIB-71™) were cultured in Dulbecco’s Modified Eagle’s Medium (DMEM) that was supplemented with 10% heat-inactivated fetal bovine serum (FBS) and 1% antibiotic solution. […] Cytotoxicity assessment was performed following the method described by Yang et al., with slight modifications. […] The percentage of cell viability was calculated relative to untreated cells using the following equation (5): […]
The sequences listed here are annotated with their Cell viability.
reported_property: Cell viability (%)

>  <polymer_sequence>
RARVVPMY [P6, synthesized peptide identified from jellyfish fraction PUR20C]

>  <study_target>
RAW 264.7

>  <reported_value>
82.77

$$$$
>  <polymer_sequence>
NQKAMQELNE [P1, synthesized peptide identified from jellyfish fraction PUR20C]

>  <study_target>
RAW 264.7

>  <reported_value>
85.76

$$$$
>  <polymer_sequence>
GKNCGETVWE [P9, synthesized peptide identified from jellyfish fraction PUR20C]

>  <study_target>
RAW 264.7

>  <reported_value>
86.26

$$$$
>  <polymer_sequence>
EIDKLPPESRP [P7, synthesized peptide identified from jellyfish fraction PUR20C]

>  <study_target>
RAW 264.7

>  <reported_value>
81.89

$$$$
>  <polymer_sequence>
DAENKENVEE [P18, synthesized peptide identified from jellyfish fraction PUR20C]

>  <study_target>
RAW 264.7

>  <reported_value>
87.17

$$$$
>  <polymer_sequence>
RPLAKIIP [P8, synthesized peptide identified from jellyfish fraction PUR20C]

>  <study_target>
RAW 264.7

>  <reported_value>
85.23

$$$$
>  <polymer_sequence>
MVVACVLPEA [P16, synthesized peptide identified from jellyfish fraction PUR20C]

>  <study_target>
RAW 264.7

>  <reported_value>
81.37

$$$$
>  <polymer_sequence>
KFNEVVYFL [P15, synthesized peptide identified from jellyfish fraction PUR20C]

>  <study_target>
RAW 264.7

>  <reported_value>
85.58

$$$$
>  <polymer_sequence>
EQIYPMGEGDEL [P4, synthesized peptide identified from jellyfish fraction PUR20C]

>  <study_target>
RAW 264.7

>  <reported_value>
83.47

$$$$
>  <polymer_sequence>
LMFMAVAFF [P12, synthesized peptide identified from jellyfish fraction PUR20C]

>  <study_target>
RAW 264.7

>  <reported_value>
73.98

$$$$
>  <polymer_sequence>
TDSPAPSETTD [P2, synthesized peptide identified from jellyfish fraction PUR20C]

>  <study_target>
RAW 264.7

>  <reported_value>
86.46

$$$$

====

test system: RAW 264.7; test: Cytotoxicity assessment (MTT); assay type: cell-based, Murine; details: peptide 10 µg/mL, 72 h, replicate 2
The sequences listed here are annotated with their Cell viability.

>  <polymer_sequence>
LGAEGRSP [P13, synthesized peptide identified from jellyfish fraction PUR20C]

>  <Cell viability [%]>
82.07

$$$$
>  <polymer_sequence>
HSVLTASYRN [P5, synthesized peptide identified from jellyfish fraction PUR20C]

>  <Cell viability [%]>
89.27

$$$$
>  <polymer_sequence>
LNIPKPKLNLL [P11, synthesized peptide identified from jellyfish fraction PUR20C]

>  <Cell viability [%]>
85.41

$$$$
>  <polymer_sequence>
NFTVLCDSLE [P10, synthesized peptide identified from jellyfish fraction PUR20C]

>  <Cell viability [%]>
84.35

$$$$
>  <polymer_sequence>
PMETDDQPNN [P17, synthesized peptide identified from jellyfish fraction PUR20C]

>  <Cell viability [%]>
83.83

$$$$
>  <polymer_sequence>
PFTMYFLL [P14, synthesized peptide identified from jellyfish fraction PUR20C]

>  <Cell viability [%]>
89.45

$$$$
>  <polymer_sequence>
EIILIPMF [P3, synthesized peptide identified from jellyfish fraction PUR20C]

>  <Cell viability [%]>
75.92

$$$$

====

tested on: angiotensin I-converting enzyme (ACE); assay: ACE inhibitory activity assay (fluorometric ACE activity assay kit); type: biochemical; conditions: peptide sample 1 mg/mL, 37 °C, fluorescence ex 320/em 405 nm; mean ± SD, n = 3; SD
reported_property: ACE inhibitory activity, mean±SD

>  <polymer_sequence>
PFTMYFLL [P14, synthesized peptide identified from jellyfish fraction PUR20C]

>  <reported_value>
81.87±0.33^B %

$$$$
>  <polymer_sequence>
RARVVPMY [P6, synthesized peptide identified from jellyfish fraction PUR20C]

>  <reported_value>
33.68±0.59^E %

$$$$
>  <polymer_sequence>
EQIYPMGEGDEL [P4, synthesized peptide identified from jellyfish fraction PUR20C]

>  <reported_value>
5.15±0.92^J %

$$$$
>  <polymer_sequence>
TDSPAPSETTD [P2, synthesized peptide identified from jellyfish fraction PUR20C]

>  <reported_value>
0.85±0.33^K %

$$$$
>  <polymer_sequence>
LGAEGRSP [P13, synthesized peptide identified from jellyfish fraction PUR20C]

>  <reported_value>
20.51±1.81^G %

$$$$
>  <polymer_sequence>
DAENKENVEE [P18, synthesized peptide identified from jellyfish fraction PUR20C]

>  <reported_value>
22.80±2.33^G %

$$$$
>  <polymer_sequence>
EIILIPMF [P3, synthesized peptide identified from jellyfish fraction PUR20C]

>  <reported_value>
33.87±0.28^E %

$$$$

====

The sequences listed here are annotated with their FRAP.
assay: Ferric reducing antioxidant power (FRAP) assay; format: biochemical; conditions: supplement tables; replicate 3

>  <polymer_sequence>
LNIPKPKLNLL [P11, synthesized peptide identified from jellyfish fraction PUR20C]

>  <FRAP>
5.73 mM FeSO4/mg protein

$$$$
>  <polymer_sequence>
GKNCGETVWE [P9, synthesized peptide identified from jellyfish fraction PUR20C]

>  <FRAP>
12.05 mM FeSO4/mg protein

$$$$
>  <polymer_sequence>
TDSPAPSETTD [P2, synthesized peptide identified from jellyfish fraction PUR20C]

>  <FRAP>
8.05 mM FeSO4/mg protein

$$$$
>  <polymer_sequence>
HSVLTASYRN [P5, synthesized peptide identified from jellyfish fraction PUR20C]

>  <FRAP>
7.42 mM FeSO4/mg protein

$$$$
>  <polymer_sequence>
KFNEVVYFL [P15, synthesized peptide identified from jellyfish fraction PUR20C]

>  <FRAP>
5.31 mM FeSO4/mg protein

$$$$
>  <polymer_sequence>
DAENKENVEE [P18, synthesized peptide identified from jellyfish fraction PUR20C]

>  <FRAP>
4.26 mM FeSO4/mg protein

$$$$
>  <polymer_sequence>
EIILIPMF [P3, synthesized peptide identified from jellyfish fraction PUR20C]

>  <FRAP>
9.10 mM FeSO4/mg protein

$$$$
>  <polymer_sequence>
PFTMYFLL [P14, synthesized peptide identified from jellyfish fraction PUR20C]

>  <FRAP>
8.26 mM FeSO4/mg protein

$$$$
>  <polymer_sequence>
NQKAMQELNE [P1, synthesized peptide identified from jellyfish fraction PUR20C]

>  <FRAP>
8.68 mM FeSO4/mg protein

$$$$
>  <polymer_sequence>
EQIYPMGEGDEL [P4, synthesized peptide identified from jellyfish fraction PUR20C]

>  <FRAP>
7.84 mM FeSO4/mg protein

$$$$
>  <polymer_sequence>
MVVACVLPEA [P16, synthesized peptide identified from jellyfish fraction PUR20C]

>  <FRAP>
5.10 mM FeSO4/mg protein

$$$$
>  <polymer_sequence>
NFTVLCDSLE [P10, synthesized peptide identified from jellyfish fraction PUR20C]

>  <FRAP>
18.36 mM FeSO4/mg protein

$$$$
>  <polymer_sequence>
PMETDDQPNN [P17, synthesized peptide identified from jellyfish fraction PUR20C]

>  <FRAP>
4.68 mM FeSO4/mg protein

$$$$
>  <polymer_sequence>
LMFMAVAFF [P12, synthesized peptide identified from jellyfish fraction PUR20C]

>  <FRAP>
16.68 mM FeSO4/mg protein

$$$$
>  <polymer_sequence>
RARVVPMY [P6, synthesized peptide identified from jellyfish fraction PUR20C]

>  <FRAP>
10.78 mM FeSO4/mg protein

$$$$

Data origin: paper PMC11813147
